Could you please report measured pIC50 for the items listed next?
# TARGET_DESC: UniProt P21589
# Sequence (P21589 27-574): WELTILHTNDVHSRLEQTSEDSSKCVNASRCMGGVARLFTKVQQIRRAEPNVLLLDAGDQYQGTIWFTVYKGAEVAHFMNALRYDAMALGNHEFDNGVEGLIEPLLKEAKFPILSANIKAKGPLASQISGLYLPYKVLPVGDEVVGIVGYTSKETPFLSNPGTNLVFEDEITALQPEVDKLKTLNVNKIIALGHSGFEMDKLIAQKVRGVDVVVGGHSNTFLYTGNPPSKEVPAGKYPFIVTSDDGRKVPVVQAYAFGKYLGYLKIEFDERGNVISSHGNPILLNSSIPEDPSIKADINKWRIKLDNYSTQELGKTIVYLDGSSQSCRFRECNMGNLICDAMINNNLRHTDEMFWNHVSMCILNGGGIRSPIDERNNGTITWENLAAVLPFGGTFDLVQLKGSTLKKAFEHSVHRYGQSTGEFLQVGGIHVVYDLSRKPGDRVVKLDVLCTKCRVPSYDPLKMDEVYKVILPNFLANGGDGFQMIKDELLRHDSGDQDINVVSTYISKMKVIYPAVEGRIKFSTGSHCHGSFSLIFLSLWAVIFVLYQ
# PROTOCOL_DETAILS: CD73 Cellular Assay
# Format: cell-based
# Set-up: 40 μL of MDA-MB-231 cells (ATCC, HTB-26, breast cancer); host or cells: MDA-MB-231
# ASSAY_CONDITIONS: MDA-MB-231 cells; 200 μM AMP working solution; 45 min at 37° C.; malachite readout; read-out: Cellular IC50 against CD73
Give bare numbers, as −log10 of the molar value.

Take a look at these entries with their results.
>  <MOLECULE>
Cn1nc(O[C@H](c2cc(COC(F)(F)F)ccn2)C(F)F)c2cc(-c3c[nH]c(=O)[nH]c3=O)nnc21 (single isomer, unassigned) [Example 36A]

>  <pIC50>
9.21

$$$$
>  <MOLECULE>
COCCOc1cc([C@@H](Oc2nn(C)c3nnc(-c4c[nH]c(=O)[nH]c4=O)cc23)C(F)F)ccc1F [Example 15]

>  <pIC50>
9.06

$$$$
>  <MOLECULE>
Cn1nc(O[C@H](c2cc(OCC#N)ccn2)C(F)F)c2cc(-c3c[nH]c(=O)[nH]c3=O)nnc21 [Example 21]

>  <pIC50>
9.14

$$$$
>  <MOLECULE>
Cn1nc(O[C@H](c2ccnc(C3CC(F)(F)C3)c2)C(F)F)c2cc(-c3c[nH]c(=O)[nH]c3=O)nnc21 [Example 38]

>  <pIC50>
9.44

$$$$

Shifting focus to the molecule that follows.
Query (molecule): Cn1nc(O[C@H](c2cc(OCC3(C(F)(F)F)CC3)ccn2)C(F)F)c2cc(-c3c[nH]c(=O)[nH]c3=O)nnc21 [Example 23] ; field requested: pIC50
9.13

* * *

# TARGET_DESC: CD73 (Homo sapiens)
# PROTOCOL_DETAILS: CD73 Cellular Assay
# Type: cell-based
# Parameters: 40 μL of MDA-MB-231 cells (ATCC, HTB-26, breast cancer); host or cells: MDA-MB-231
# ASSAY_CONDITIONS: MDA-MB-231 cells; 200 μM AMP working solution; 45 min at 37° C.; malachite readout; read-out: Cellular IC50 against CD73
MEASURED_ENDPOINT: pIC50
Numbers only, as −log10 of the molar value.

Take a look at these entries with their results.
>  <COMPOUND>
Cn1nc(O[C@H](c2cccc(OCC(F)(F)F)c2)C(F)F)c2cc(-c3c[nH]c(=O)[nH]c3=O)nnc21

>  <pIC50>
9.15

$$$$
>  <COMPOUND>
Cn1nc(O[C@H](c2cncc(OCC(F)(F)F)c2)C(F)F)c2cc(-c3c[nH]c(=O)[nH]c3=O)nnc21 (single isomer, unassigned)

>  <pIC50>
9.18

$$$$

Fill in pIC50 for each of the 8 compounds listed.
1. Cn1nc(O[C@H](c2ccnc(COCC(F)(F)F)c2)C(F)F)c2cc(-c3c[nH]c(=O)[nH]c3=O)nnc21
2. Cn1nc(O[C@H](c2ccnc(OCC(F)(F)F)c2)C(F)F)c2cc(-c3n[nH]c(=O)[nH]c3=O)nnc21
3. C[C@H](Oc1nn(C)c2nnc(-c3c[nH]c(=O)[nH]c3=O)cc12)c1cc(OCC(F)(F)F)ncn1 (single isomer, unassigned) [Example 14A]
4. Cn1nc(O[C@H](c2ccnc(OCC(F)(F)F)c2)C(F)F)c2cc(-c3c[nH]c(=O)[nH]c3=O)nnc21
5. Cn1nc(O[C@H](c2ccnc(OCC(F)F)c2)C(F)F)c2cc(-c3c[nH]c(=O)[nH]c3=O)nnc21 [Example 11B]
6. Cn1nc(O[C@H](c2cc(OCC(F)(F)F)c(F)cn2)C(F)F)c2cc(-c3c[nH]c(=O)[nH]c3=O)nnc21
7. C[C@@H](Nc1cc([C@@H](Oc2nn(C)c3nnc(-c4c[nH]c(=O)[nH]c4=O)cc23)C(F)F)ccn1)C(F)(F)F
8. CC(Oc1ccnc([C@@H](Oc2nn(C)c3nnc(-c4c[nH]c(=O)[nH]c4=O)cc23)C(F)F)c1)C(F)(F)F (some centres unmarked)

[9.38, 9.17, 8.98, 9.26, 9.14, 9.14, 9.32, 9.41]

Fill in pIC50 for each of the 3 compounds listed.
1. Cn1nc(O[C@H](c2cc(OCC(F)(F)F)ncn2)C(F)F)c2cc(-c3c[nH]c(=O)[nH]c3=O)nnc21 (single isomer, unassigned) [Example 35A]
2. [2H]C([2H])([2H])n1nc(O[C@H](c2cc(OCC(F)(F)F)ccn2)C(F)F)c2cc(-c3c[nH]c(=O)[nH]c3=O)nnc21
3. [2H]C([2H])([2H])C([2H])([2H])Oc1cc([C@@H](Oc2nn(C)c3nnc(-c4c[nH]c(=O)[nH]c4=O)cc23)C(F)F)ccn1

1: 9.23; 2: 9.37; 3: 9.22

Fill in pIC50 for each of the 7 compounds listed.
1. [2H]C([2H])([2H])C([2H])([2H])Oc1cc([C@@H](Oc2nn(C)c3nnc(-c4c[nH]c(=O)[nH]c4=O)cc23)C(F)F)ncn1 [Example 39A]
2. [2H]C([2H])(Oc1ccnc([C@@H](Oc2nn(C)c3nnc(-c4c[nH]c(=O)[nH]c4=O)cc23)C(F)F)c1)C(F)(F)F
3. CCOc1ccnc([C@@H](Oc2nn(C)c3nnc(-c4c[nH]c(=O)[nH]c4=O)cc23)C(F)F)c1
4. Cn1nc(O[C@H](c2cc(OC3CC(F)(F)C3)ncn2)C(F)F)c2cc(-c3c[nH]c(=O)[nH]c3=O)nnc21 [Example 42A]
5. Cn1nc(O[C@H](c2ccnc(NC3CCC(F)(F)CC3)c2)C(F)F)c2cc(-c3c[nH]c(=O)[nH]c3=O)nnc21
6. Cn1nc(O[C@H](c2cc(OCC3(C#N)CC3)ccn2)C(F)F)c2cc(-c3c[nH]c(=O)[nH]c3=O)nnc21
7. Cn1nc(O[C@H](c2cc(OCC3(F)CC3)ccn2)C(F)F)c2cc(-c3c[nH]c(=O)[nH]c3=O)nnc21

1: 9.19; 2: 9.28; 3: 9.31; 4: 9.12; 5: 9.42; 6: 9.37; 7: 9.23
